assay: Photophysical measurements; assay type: physicochemical; settings: Ar-purged methanol
Could you please report measured Θ f (fluorescence quantum yield) for the items listed next?
Answers are plain numbers.

* COCCN(CCOC)C(=O)c1cc2cc3nc(cc4[nH]c(cc5nc(cc1[nH]2)CC5(C)C)cc4C(=O)N(CCOC)CCOC)CC3(C)C | 0.10
* CC1(C)Cc2cc3[nH]c(cc4nc(cc5[nH]c(cc1n2)cc5C(=O)/C=C/c1cc(O)cc(O)c1)CC4(C)C)cc3C(=O)/C=C/c1cc(O)cc(O)c1 | 0.021
* CC1(C)Cc2cc3[nH]c(cc4nc(cc5[nH]c(cc1n2)cc5-c1cc(OCCO)cc(OCCO)c1)CC4(C)C)cc3-c1cc(OCCO)cc(OCCO)c1 | 0.15

Now consider a different compound.
Entry CC1(C)Cc2cc3[nH]c(cc4nc(cc5[nH]c(cc1n2)cc5C(=O)N(CCN)CCN)CC4(C)C)cc3C(=O)N(CCN)CCN , Θ f (fluorescence quantum yield) reported as 0.12

----------
test: Photophysical measurements; assay type: physicochemical; conditions: aerated methanol
Provide the recorded Qy(0,0) fluorescence fwhm for the entries that follow.
Numbers only, in nm.

- CC1(C)Cc2cc3[nH]c(cc4nc(cc5[nH]c(cc1n2)cc5C(=O)/C=C/c1cc(O)cc(O)c1)CC4(C)C)cc3C(=O)/C=C/c1cc(O)cc(O)c1: 40
- CC1(C)Cc2cc3[nH]c(cc4nc(cc5[nH]c(cc1n2)cc5-c1cc(O)cc(O)c1)CC4(C)C)cc3-c1cc(O)cc(O)c1: 26

Now look at this entry.
Form field Qy(0,0) fluorescence fwhm, entry CC1(C)Cc2cc3[nH]c(cc4nc(cc5[nH]c(cc1n2)cc5C(=O)NCCN)CC4(C)C)cc3C(=O)NCCN : 25
